Data provenance is patent US20020137929A1.

Listed here: items and their measured ZEAMX herbicidal rating.
Tested on: ZEAMX (Corn, Field)
Assay: Postemergence herbicidal evaluation
Format: in vivo, Zea mays
Conditions: postemergence, rate 0.0158 kg/ha

Please fill in: ZEAMX herbicidal rating reported for COC(=O)[C@@H](Cc1ccccc1)N1C(=O)CSC1=Nc1cc(-n2c(=O)cc(C(F)(F)F)n(C)c2=O)c(F)cc1Cl [Compound 74] = 4.5

Please fill in: ZEAMX herbicidal rating reported for C[C@H](C(=O)O)N1C(=O)CSC1=Nc1cc(-n2c(=O)cc(C(F)(F)F)n(C)c2=O)c(F)cc1Cl [Compound 70] = 4.0

Please fill in: ZEAMX herbicidal rating reported for COC(=O)C(Cc1ccc(Cl)cc1)N1C(=O)CSC1=Nc1cc(-n2c(=O)cc(C(F)(F)F)n(C)c2=O)c(F)cc1Cl (racemic) [Compound 77] = 4.0

Please fill in: ZEAMX herbicidal rating reported for CCOC(=O)CN1C(=O)C(=Cc2ccccc2)SC1=Nc1cc(-n2c(=O)cc(C(F)(F)F)n(C)c2=O)c(F)cc1Cl [Compound 19] = 4.0

###

Test system: GLXMAW (Soybean, Williams)
Test: Preemergence herbicidal evaluation
Assay type: in vivo, Glycine max, (L.) Merr. cv Williams
Settings: 0.0156 kg/ha, rated 4-5 weeks after treatment
Listed here: items and their measured Preemergence herbicidal rating GLXMAW.
Please give only the number in your answer, with no unit.

# example entries with known answers
{"COMPOUND": "CC(C)N1C(=O)CSC1=Nc1cc(-n2c(=O)cc(C(F)(F)F)n(C)c2=O)c(F)cc1Cl", "Preemergence herbicidal rating GLXMAW": 1.0}
{"COMPOUND": "CCOC(=O)CN1C(=O)C(C(=O)OC(C)(C)C)SC1=Nc1cc(-n2c(=O)cc(C(F)(F)F)n(C)c2=O)c(F)cc1Cl (stereo not shown)", "Preemergence herbicidal rating GLXMAW": 1.0}
{"COMPOUND": "Cn1c(C(F)(F)F)cc(=O)n(-c2cc(N=C3SCC(=O)N3C3CCC3)c(Cl)cc2F)c1=O", "Preemergence herbicidal rating GLXMAW": 0.0}

Please look at the following compound next.
Please fill in: Preemergence herbicidal rating GLXMAW reported for CCOC(=O)CN1C(=O)C(CC(=O)O)SC1=Nc1cc(N2C(=O)CC(C(F)(F)F)CC2=O)c(F)cc1Cl (stereo not shown) = 1.0

###

System: GLXMAW (Soybean, Williams)
Assay: Postemergence herbicidal evaluation
Assay type: in vivo, Glycine max, (L.) Merr. cv Williams
Details: postemergence, rate 0.0625 kg/ha
Decide by Herbicidal rating GLXMAW: equal to or exceeding 6 means MET, less means NOT MET.

Some solved cases for reference:
{"MOLECULE": "CCOC(=O)CN1C(=O)C(CC(=O)O)SC1=Nc1cc(N2C(=O)CC(C(F)(F)F)CC2=O)c(F)cc1Cl (centres unmarked) [Compound 170]", "ANSWER LABEL": "MET"}
{"MOLECULE": "CCOC(=O)CN1C(=O)C(COC)SC1=Nc1cc(-n2c(=O)cc(C(F)(F)F)n(C)c2=O)c(F)cc1Cl (centres unmarked) [Compound 156]", "ANSWER LABEL": "NOT MET"}
{"MOLECULE": "Cc1ccc(CN2C(=O)CSC2=Nc2cc(-n3c(=O)cc(C(F)(F)F)n(C)c3=O)c(F)cc2Cl)cc1Cl [Compound 149]", "ANSWER LABEL": "NOT MET"}
{"MOLECULE": "Cn1c(C(F)(F)F)cc(=O)n(-c2cc(N=C3SCC(=O)N3Cc3ccc(Cl)c(Cl)c3)c(Cl)cc2F)c1=O [Compound 144]", "ANSWER LABEL": "MET"}
{"MOLECULE": "Cn1c(C(F)(F)F)cc(=O)n(-c2cc(N=C3SCC(=O)N3CC(=O)OC3CCCC3)c(Cl)cc2F)c1=O [Compound 120]", "ANSWER LABEL": "MET"}
{"MOLECULE": "Cn1c(C(F)(F)F)cc(=O)n(-c2cc(N=C3SCC(=O)N3Cc3ccc(C(F)(F)F)cc3)c(Cl)cc2F)c1=O [Compound 141]", "ANSWER LABEL": "NOT MET"}

Here's the next entry for you.
Reported Herbicidal rating GLXMAW at or above 6? Cn1c(C(F)(F)F)cc(=O)n(-c2cc(N=C3SCC(=O)N3Cc3ccccn3)c(Cl)cc2F)c1=O [Compound 131]
NOT MET

###

Tested on: GLXMAW (Soybean, Williams)
Experiment: Postemergence herbicidal evaluation
Type: in vivo, Glycine max, (L.) Merr. cv Williams
Settings: postemergence, rate 0.0156 kg/ha
Decide by Herbicidal rating GLXMAW: equal to or exceeding 5 means criterion met, less means criterion not met.

Some solved cases for reference:
{"COMPOUND": "CC(C)S(=O)(=O)NC(=O)CC1SC(=Nc2cc(-n3c(=O)cc(C(F)(F)F)n(C)c3=O)c(F)cc2Cl)N(C)C1=O (stereo not drawn) [Compound 119]", "TGT": "GLXMAW (Soybean, Williams)", "ANSWER LABEL": "criterion met"}
{"COMPOUND": "C=CCN1C(=O)C(CC(=O)NS(=O)(=O)CC)SC1=Nc1cc(-n2c(=O)cc(C(F)(F)F)n(C)c2=O)c(F)cc1Cl (stereo not drawn) [Compound 104]", "TGT": "GLXMAW (Soybean, Williams)", "ANSWER LABEL": "criterion not met"}
{"COMPOUND": "CC(C)N1C(=O)CSC1=Nc1cc(-n2c(=O)cc(C(F)(F)F)n(C)c2=O)c(F)cc1Cl [Compound 164]", "TGT": "GLXMAW (Soybean, Williams)", "ANSWER LABEL": "criterion met"}

Reported Herbicidal rating GLXMAW at or above 5? Cn1c(C(F)(F)F)cc(=O)n(-c2cc(N=C3SCC(=O)N3Cc3ccc(C(F)(F)F)cc3)c(Cl)cc2F)c1=O [Compound 141]
criterion not met

Reported Herbicidal rating GLXMAW at or above 5? Cn1c(C(F)(F)F)cc(=O)n(-c2cc(N=C3SCC(=O)N3C3CCC3)c(Cl)cc2F)c1=O [Compound 168]
criterion met

###

Listed here: items and their measured Preemergence herbicidal rating SETVI.
System: SETVI (Foxtail, Green)
Assay: Preemergence herbicidal evaluation
Format: in vivo, Setaria viridis
Settings: 0.1250 kg/ha, rated 4-5 weeks after treatment
Please give only the number in your answer, with no unit.

# example entries with known answers
{"COMPOUND": "COCCCN1C(=O)CSC1=Nc1cc(-n2c(=O)cc(C(F)(F)F)n(C)c2=O)c(F)cc1Cl", "Preemergence herbicidal rating SETVI": 9.0}
{"COMPOUND": "Cn1c(C(F)(F)F)cc(=O)n(-c2cc(N=C3SCC(=O)N3C3CCCC3)c(Cl)cc2F)c1=O", "Preemergence herbicidal rating SETVI": 6.0}
{"COMPOUND": "CCOC(=O)CN1C(=O)C(OC)SC1=Nc1cc(-n2c(=O)cc(C(F)(F)F)n(C)c2=O)c(F)cc1Cl (centres unmarked)", "Preemergence herbicidal rating SETVI": 7.0}
{"COMPOUND": "CCOC(=O)CN1C(=O)C(CC(=O)O)SC1=Nc1cc(N2C(=O)CC(C(F)(F)F)CC2=O)c(F)cc1Cl (centres unmarked)", "Preemergence herbicidal rating SETVI": 9.0}

Please look at the following compound next.
Please fill in: Preemergence herbicidal rating SETVI reported for CC(C)N1C(=O)CSC1=Nc1cc(-n2c(=O)cc(C(F)(F)F)n(C)c2=O)c(F)cc1Cl = 9.0

###

Test system: ZEAMX (Corn, Field)
Experiment: Preemergence herbicidal evaluation
Type: in vivo, Zea mays
Conditions: rate 0.2500 kg/ha; rated 4-5 weeks after treatment; rating scale 0-9
Listed here: items and their measured Preemergence herbicidal rating ZEAMX.
Please give only the number in your answer, with no unit.

{"ENTRY SMILES": "Cn1c(C(F)(F)F)cc(=O)n(-c2cc(N=C3SCC(=O)N3Cc3cccnc3)c(Cl)cc2F)c1=O", "READOUT VALUE": 2.0}
{"ENTRY SMILES": "Cn1c(C(F)(F)F)cc(=O)n(-c2cc(N=C3SCC(=O)N3Cc3ccc(C(F)(F)F)cc3)c(Cl)cc2F)c1=O", "READOUT VALUE": 2.0}
{"ENTRY SMILES": "Cn1c(C(F)(F)F)cc(=O)n(-c2cc(N=C3SCC(=O)N3Cc3ccc(Cl)c(Cl)c3)c(Cl)cc2F)c1=O", "READOUT VALUE": 0.0}

Please fill in: Preemergence herbicidal rating ZEAMX reported for Cn1c(C(F)(F)F)cc(=O)n(-c2cc(N=C3SCC(=O)N3Cc3cccc(Cl)c3)c(Cl)cc2F)c1=O = 3.0

Please fill in: Preemergence herbicidal rating ZEAMX reported for Cn1c(C(F)(F)F)cc(=O)n(-c2cc(N=C3SCC(=O)N3Cc3ccncc3)c(Cl)cc2F)c1=O = 0.0

Please fill in: Preemergence herbicidal rating ZEAMX reported for C=C1SC(=Nc2cc(-n3c(=O)cc(C(F)(F)F)n(C)c3=O)c(F)cc2Cl)N(CC(=O)OCC)C1=O = 9.0
